TARGET_DESC: Muscarinic acetylcholine receptor M2 (Homo sapiens)
Sequence (P08172 whole entry): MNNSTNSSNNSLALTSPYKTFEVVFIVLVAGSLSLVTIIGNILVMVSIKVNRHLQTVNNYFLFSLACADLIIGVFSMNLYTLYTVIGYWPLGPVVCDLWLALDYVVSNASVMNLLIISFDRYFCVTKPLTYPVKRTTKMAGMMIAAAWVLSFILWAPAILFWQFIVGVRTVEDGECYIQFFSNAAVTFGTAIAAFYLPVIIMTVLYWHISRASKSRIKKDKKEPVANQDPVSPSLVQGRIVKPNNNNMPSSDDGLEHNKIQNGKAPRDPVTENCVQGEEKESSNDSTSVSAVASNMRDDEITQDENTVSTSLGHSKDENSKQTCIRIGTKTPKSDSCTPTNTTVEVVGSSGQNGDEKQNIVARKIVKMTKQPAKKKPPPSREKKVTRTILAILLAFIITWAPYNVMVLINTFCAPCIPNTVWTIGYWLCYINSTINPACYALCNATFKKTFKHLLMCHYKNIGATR
EXPERIMENT_SUMMARY: Antagonist activity at human recombinant muscarinic M2 receptor expressed in CHO cells coexpressing chimeric G protein Gqi5 assessed as inhibition of acetylcholine-induced intracellular Ca2+ mobilization by FLIPR assay
Could you please report measured log10 IC50 for the items listed next?
The figures below represent log10 of IC50, where IC50 is stated in nM.

## Task Answer with reported log10 IC50 of CCOC(=O)c1ccc(NC(=O)N[C@@H](Cc2ccc(O)cc2)C(=O)NC2CCN(Cc3cccc(C#N)c3)C2)cc1 (some centres not stated)
## Result 2.00

## Task Answer with reported log10 IC50 of CCOC(=O)c1ccc(NC(=O)N[C@@H](Cc2ccc(-c3ccccc3)cc2)C(=O)N[C@H]2CC[N+](C)(Cc3ccc4c(c3)OCO4)C2)cc1 (some centres not stated)
## Result 0.70

## Task Answer with reported log10 IC50 of CCOC(=O)c1ccc(NC(=O)N[C@@H](Cc2ccc(O)cc2)C(=O)N[C@H]2CC[N+](C)(Cc3ccc(F)cc3)C2)cc1 (some centres not stated)
## Result 1.60

## Task Answer with reported log10 IC50 of COC(=O)c1ccc(NC(=O)N[C@@H](Cc2ccc(O)cc2)C(=O)NC2CCN(Cc3ccc(O)cc3)C2)cc1 (some centres not stated)
## Result 2.50

## Task Answer with reported log10 IC50 of CCOC(=O)c1ccc(NC(=O)N[C@@H](Cc2ccc(O)cc2)C(=O)N[C@H]2CC[N+](C)(Cc3ccc(O)cc3)C2)cc1 (some centres not stated)
## Result 1.60

Further cases:
## Task Answer with reported log10 IC50 of CCOC(=O)c1ccc(NC(=O)N[C@@H](Cc2ccc(C(=O)c3ccccc3)cc2)C(=O)N[C@H]2CC[N+](C)(Cc3ccc4c(c3)OCO4)C2)cc1 (some centres not stated)
## Result 0.40

###

Could you please report measured pIC50 for the items listed next?
TARGET_DESC: UniProtKB P11229
Sequence (P11229 whole entry): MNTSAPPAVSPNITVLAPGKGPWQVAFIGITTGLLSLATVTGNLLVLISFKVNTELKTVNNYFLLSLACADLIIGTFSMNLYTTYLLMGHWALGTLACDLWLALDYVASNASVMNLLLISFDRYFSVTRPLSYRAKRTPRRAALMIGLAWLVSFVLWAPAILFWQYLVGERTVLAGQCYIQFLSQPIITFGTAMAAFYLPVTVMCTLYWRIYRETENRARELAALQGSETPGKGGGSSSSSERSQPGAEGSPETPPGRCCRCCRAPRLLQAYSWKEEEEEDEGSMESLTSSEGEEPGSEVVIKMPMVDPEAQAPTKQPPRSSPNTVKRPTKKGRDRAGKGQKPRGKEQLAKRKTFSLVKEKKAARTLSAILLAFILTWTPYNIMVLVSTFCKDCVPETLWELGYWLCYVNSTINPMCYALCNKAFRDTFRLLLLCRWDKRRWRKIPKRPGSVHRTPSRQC
EXPERIMENT_SUMMARY: Antagonist activity at human recombinant muscarinic M1 receptor expressed in CHO cells assessed as inhibition of acetylcholine-induced intracellular Ca2+ mobilization by FLIPR assay
Give bare numbers, as −log10 of the molar value.

// worked examples, pIC50 included
## Task Answer with reported pIC50 of COC(=O)c1ccc(NC(=O)N[C@@H](Cc2ccc(O)cc2)C(=O)NC2CCN(Cc3ccc(O)cc3)C2)cc1 (stereo not given in full)
## Result 6.00

## Task Answer with reported pIC50 of CCOC(=O)c1ccc(NC(=O)N[C@@H](Cc2ccc(O)cc2)C(=O)NC2CCN(Cc3ccccc3OC)C2)cc1 (stereo not given in full)
## Result 6.00

## Task Answer with reported pIC50 of CCOC(=O)c1ccc(NC(=O)N[C@@H](Cc2ccc(O)cc2)C(=O)N[C@H]2CC[N+](C)(Cc3ccc(O)cc3)C2)cc1 (stereo not given in full)
## Result 6.60

Dear colleague, could you send me pIC50 for each of the items below? Thanks.
1. CCOC(=O)c1ccc(NC(=O)N[C@@H](Cc2ccc(O)cc2)C(=O)NC2CCN(Cc3cccc(O)c3)C2)cc1 (stereo not given in full)
2. CCOC(=O)c1ccc(NC(=O)N[C@@H](Cc2ccc(C#N)cc2)C(=O)N[C@H]2CC[N+](C)(Cc3ccc4c(c3)OCO4)C2)cc1 (stereo not given in full)
3. CCOC(=O)c1ccc(NC(=O)N[C@@H](Cc2ccc(O)cc2)C(=O)N[C@H]2CCC[N+](C)(Cc3ccc(F)cc3)C2)cc1 (stereo not given in full)
4. CCOC(=O)c1ccc(NC(=O)N[C@@H](Cc2ccc(O)cc2)C(=O)NC2CCN(Cc3ccccc3)C2)cc1 (stereo not given in full)
5. CCOC(=O)c1ccc(NC(=O)N[C@@H](Cc2ccc(OC)cc2)C(=O)N[C@H]2CC[N+](C)(Cc3ccc4c(c3)OCO4)C2)cc1 (stereo not given in full)
6. CCOC(=O)c1ccc(NC(=O)N[C@@H](Cc2ccc(Br)cc2)C(=O)N[C@H]2CC[N+](C)(Cc3ccc4c(c3)OCO4)C2)cc1 (stereo not given in full)

## Result
1: 6.10; 2: 6.60; 3: 7.00; 4: 5.70; 5: 7.10; 6: 7.50
